system: E57 (patient-derived glioblastoma stem cells of mesenchymal subtype); assay: surviving fraction (nuclei count normalised to DMSO); higher = more cells surviving (less toxic); details: 4.1 nM; exposure time: 72 h;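 further: nuclei counted by high-content imaging of Hoechst-stained cells in laminin-coated 384-well plates, relative to 0.1% DMSO vehicle wells, with staurosporine as cell-death control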
Where a name gives a salt, the structure may show the parent alone.
reportedMetric: surviving fraction
Respond with the number and no other words.

Solved cases (8 shown):
Cc1ncc(CO)c(CO)c1O [Pyridoxine hydrochloride] | 1.03
C[C@@H](Oc1cc(-c2cnn(C3CCNCC3)c2)cnc1N)c1c(Cl)ccc(F)c1Cl | 1.03
CC(=O)OC[C@H]1O[C@@H]([S-])[C@H](OC(C)=O)[C@@H](OC(C)=O)[C@@H]1OC(C)=O.CCP(CC)CC.[Au+] | 0.985
CCn1cc(C(=O)O)c(=O)c2cc(F)c(N3CCNCC3)nc21 | 1
CC(C)C[C@H](NC(=O)CNC(=O)c1cc(Cl)ccc1Cl)B1OC(=O)C(CC(=O)O)(CC(=O)O)O1 | 0.0256
COc1cc([C@@H]2c3cc4c(cc3[C@@H](O[C@@H]3O[C@@H]5CO[C@@H](c6cccs6)O[C@H]5[C@H](O)[C@H]3O)[C@H]3COC(=O)[C@H]23)OCO4)cc(OC)c1O [Teniposide] | 0.727
C[C@H]1O[C@@H](O[C@H]2[C@@H](O)C[C@H](O[C@H]3[C@@H](O)C[C@H](O[C@H]4CC[C@@]5(C)[C@H](CC[C@@H]6[C@@H]5C[C@@H](O)[C@]5(C)[C@@H](C7=CC(=O)OC7)CC[C@]65O)C4)O[C@@H]3C)O[C@@H]2C)C[C@H](O)[C@@H]1O | 1
C=CC(=O)Nc1cc(Nc2nccc(-c3cn(C)c4ccccc34)n2)c(OC)cc1N(C)CCN(C)C [Osimertinib mesylate] | 0.979

Query CC1(C)S[C@@H]2[C@H](NC(=O)Cc3ccccc3)C(=O)N2[C@H]1C(=O)O [Benzylpenicillin sodium] yields surviving fraction of 1.03

Looking up Cc1ccc(S(=O)(=O)/C=C/C#N)cc1 , I see its surviving fraction listed as 0.965

Value of measured surviving fraction for the entry CC(NCCC(c1ccccc1)c1ccccc1)c1ccccc1 (stereo not given) [Fendiline hydrochloride] : 0.982

For this molecule ( CC1=C(/C=C/C(C)=C/C=C/C(C)=C/C(=O)Nc2ccc(O)cc2)C(C)(C)CCC1 [Retinoic acid p-hydroxyanilide] ), measured surviving fraction is 1.12
